- TARGET OR SYSTEM: Human serum albumin (HSA) (Homo sapiens)
- Construct: fatty acid-free albumin from human serum; CPM-labelled at Cys-34 for FRET
- Sequence (P02768 25-609): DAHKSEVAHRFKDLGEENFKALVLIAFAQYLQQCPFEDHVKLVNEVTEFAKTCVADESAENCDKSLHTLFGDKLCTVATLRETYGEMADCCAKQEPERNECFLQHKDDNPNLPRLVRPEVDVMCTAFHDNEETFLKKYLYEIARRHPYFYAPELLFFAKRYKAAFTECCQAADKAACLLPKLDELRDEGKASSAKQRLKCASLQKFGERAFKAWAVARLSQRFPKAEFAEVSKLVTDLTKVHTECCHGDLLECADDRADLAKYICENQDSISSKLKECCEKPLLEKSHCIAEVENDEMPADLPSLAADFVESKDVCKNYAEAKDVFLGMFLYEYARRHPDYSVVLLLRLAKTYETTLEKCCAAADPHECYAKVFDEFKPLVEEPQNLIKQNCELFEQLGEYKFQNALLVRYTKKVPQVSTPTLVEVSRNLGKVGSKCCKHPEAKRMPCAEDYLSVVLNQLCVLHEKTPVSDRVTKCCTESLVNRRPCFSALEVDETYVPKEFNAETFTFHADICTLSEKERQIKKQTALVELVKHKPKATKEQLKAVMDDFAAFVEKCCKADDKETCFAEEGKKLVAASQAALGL
- EXPERIMENT: FRET (Trp-214 to CPM-Cys-34) titration with one-site fit; Trp fluorescence quenching, CD, DLS
pEC50: −log10 of the molar value.

{"MOLECULE": "O=C(O[C@@H]1Cc2c(O)cc(O)cc2O[C@@H]1c1cc(O)c(O)c(O)c1)c1cc(O)c(O)c(O)c1 [EGCg, (-)-epigallocatechin gallate]", "TARGET OR SYSTEM": "Human serum albumin (HSA) (Homo sapiens)", "pEC50": 5.43}
